Experiment: Rat pharmacokinetics, intravenous administration
Assay type: in vivo
Conditions: rat, plasma, iv, 5 mg/kg, Rat 1, read-out: Apparent T1/2 (min) for steady state
Procedure: The pharmacokinetics of compound 1 was tested in rats after intravenous and oral administration. Two rats were administered 5 mg/kg compound 1 intravenously in a vehicle consisting of 7% Tween 80, 3% EtOH, 5% DMSO in saline. Two rats were administered 20 mg/kg compound 1 orally in a vehicle consisting of 5% DMSO, 0.5% Tween 80, 1% methylcellulose in water. The results are shown in Table 4 and FIGS. 3A-3B and 4A-4B.
test readout: half-life (min)
Only the number, expressed in min, is required.

Lookup: Need half-life of O=C(Nc1ccc2sc(-c3ccc(F)c(F)c3)nc2c1)N1CC[C@H](F)C1 [Compound 1] , thanks.
Found: 88.5
